# ASSAYED TARGET: Vg9/Vd2 T cell receptor expressed on SKW3_4 cells (UniProt Q99603)
# Sequence (Q99603 21-122, chain 1 of 2): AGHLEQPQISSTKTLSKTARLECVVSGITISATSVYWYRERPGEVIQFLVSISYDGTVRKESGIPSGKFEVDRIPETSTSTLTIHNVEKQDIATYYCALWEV
# Sequence (A0JD36 20-115, chain 2 of 2, further chain): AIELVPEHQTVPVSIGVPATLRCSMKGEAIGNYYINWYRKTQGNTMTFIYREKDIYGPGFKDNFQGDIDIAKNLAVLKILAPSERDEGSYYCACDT
# PROTOCOL: flow cytometry, dose-response binding at 37 C, SKW3_4 cells expressing Vg9/Vd2
Measured Max. Activity (fold over background) accompanies every entry in the list below.
In your answer, state the number alone without any accompanying words.

BINDER	Max. Activity (fold over background)
VG9B147 (antibody, human IgG1, lambda, V domains shown) VH: QVQLQESGPGLVNPSETLSLTCTVSGGSISGYFWNWIRQPPGKGLEWIGYIFYSGSTNYNPSLKSRVTISVDTSKNQFSLKLSSVTAADTAIYYCAREGKWELRSTFDIWGQGTMVTVSS VL: SSELTQDPAVSVALGQTVRITCQGDSLRSYYATWYQQKPGQAPILVIYGENNRPSGIPDRFSGSRSGNTASLTITGAQAEDEADYYCNSRDTGDHHLVFGGGTKLTVLG	30.5
VG9B203 (antibody, human IgG1, lambda, V domains shown) VH: QVQLVQSGPGLVKPSETLSLTCTVSGDSIGHYYWNWIRQPAGKGLEWIGRIYTSGSTNYNPSLKSRVTMSVDTSKNQFSLKLSSVTAADTAVYYCARSGGNFYWYFDLWGRGTLVTVSS VL: QSVLTQPPSVSAAPGQKVTISCSGSSSNIGNNYVSWYQQVPGTAPKLLIYDNNKRPSGIPDRISGSKSGTSATLGITGLQTGDEADYYCGTWDSSLSAGVFGGGTKVTVLG	143
VG9B380 (antibody, human IgG1, lambda, V domains shown) VH: QVQLQESGPGLVKPSETLSLTCTVSGGSISNYYWSWIRQPAGKGLEWIGRIYPSGITSYDPSLKSRVTMSLDTSKNQFSLKLTSVTAADTAVYYCAGIMGTKGAFDIWGQGTMVTVSS VL: QSALTQPASVSGSPGQSITISCTGTSSDVGGYNYVSWYQQHPGKAPKLLIYEVSNRPSGVSNRFSGSKSGSTASLTISGLQAEDEADYYCSSYTSTSVVFGGGTKLTVLG	164

Look at this binder and give its reported Max. Activity (fold over background). VG9B208 (antibody, human IgG1, lambda, V domains shown) VH: QVQLQESGPGLVKPSETLSLTCTVSGGSISGYYWSWIRQPPGKGLELIGYIFYSGSINYNPSLKNRVTISLDTSKNQFSLKLTSVTAADTAVYYCARVGKWELRSSFDIWGQGTMVTVSS VL: QSVLTQPPSVSAAPGQKVTISCSGSTSNIGNNDVSWYQQLPGTAPKLLIYDNNKRPSGIPDRFSGSKSGTSATLGITGLQTGDEADYYCGTWDSSLSVWVFGGGTKLTVLG 177

What about VG9B372 (antibody, human IgG1, kappa, V domains shown) VH: QVQLQESGPGLVKPSQTLSLTCTVSGGSISNGGFYWSWIRQHPGKGLEWLGYINYSGSTYYNPSLESRGTISLDTSKNQFSLKLRSVTAADTAVYYCARDRNYEWNFDLWGRGTLVTVSS VL: EIVMTQSPATLSLSPGEGATLSCRASQSVSSYLAWYQQKPGQAPRLLVYDASNRATGIPARFSGSGSGTAFTLTITSLEPEDFVVYYCQQRSNWPLTFGGGTKLEIKR ? 127

What about VG9B81 (antibody, human IgG1, kappa, V domains shown) VH: QVQLQESGPGLVKPSETLSLTCSVSGGSINTYYWSWFRQPAGKGLELIGRIYTSDNTNYNPSLKSRVTMSVDTSKNQFSLKLSSVTAADTAVYYCARYNWNYWYFDLWGRGTLVTVSS VL: DIQMTQSPSFLSASVRDRVNITCRASQGISSYLAWYQQKPGKAPKLLIYTASTLQSGVPSRFSGSGSGTEFTLTISSLQPEDFATYYCQHLNSYPYTFGQGTKVEIKR ? 42.2

What about VG9B103 (antibody, human IgG1, kappa, V domains shown) VH: EVQLVQSGAEVKKPGSSVKVSCKTSGGTFSSYAISWVRQAPGQGLEWMGGIIPIFGTATYAQKFQDRVTITADKSTSTAYMELSSLRSEDTAVFYCARGVGWGTDYYYGLDVWGQGTTVTVSS VL: ETTLTQSPLSSPVTLGQPASISCRSSQGLVHSDGNTYLSWLQQRPGQSPRLLIYKISNRFSGVPDRFSGSGAGTDFTLKISRVEAEDVGVYYCMQATHHPLTFGGGTKVEIKR ? 96.4

Every entry's value here was drawn from patent US20220125947A1.
